# credit: patent US20120231006A1

# tested.target: T1, mOrai1-hOrai1 ECL2 (HSD) protein (human/mouse chimera, UniProt Q8BWG9 1-304 (mouse entry))
# T1 construct: also called Ch
# T1 sequence (Q8BWG9 other isoform, or with tags, fused parts or gaps): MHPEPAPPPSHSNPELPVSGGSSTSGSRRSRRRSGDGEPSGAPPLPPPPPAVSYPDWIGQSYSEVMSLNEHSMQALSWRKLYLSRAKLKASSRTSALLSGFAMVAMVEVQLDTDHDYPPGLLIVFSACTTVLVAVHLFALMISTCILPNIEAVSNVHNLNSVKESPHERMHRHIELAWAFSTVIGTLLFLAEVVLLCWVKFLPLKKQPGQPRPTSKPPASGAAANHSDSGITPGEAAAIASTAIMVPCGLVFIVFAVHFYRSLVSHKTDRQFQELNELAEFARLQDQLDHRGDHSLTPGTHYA
# procedure.text: FACS, 293EBNA, RFI-POC grade
# Set-up: concentration or dose not given beside the values
The entries below are paired with their reported POC (percent of control, FACS Geo Mean relative to binding to Ch. 1).

Guide cases for POC (percent of control, FACS Geo Mean relative to binding to Ch. 1), answers given:
mAb 5F2.1 (antibody, human IgG2, lambda, V domains shown, fully human IgG2 lambda, Campaign 2) VH: QVQLVQSGAEVKKPGASVKVSCKASGYTFTDYYMNWVRQAPGQGLEWMGWINPNSGGTHYAQKFQGRVTMTRDTSISTAYMELSRLRSDDTAVYYCAREYGGYSDWFDPWGQGTLVTVSS VL: QSVLTQPPSVSGAPGQRVTISCTGSRSNIGAGYDVHWYQQLPRTAPKLLIYDNSNRPSGVPDRFSGSKSGSSASLAITGLQAEDEADYYCQSYDNSLSDSVLIGGGTKLTVLG : 40 to 100%
mAb 5C1.1 (antibody, human IgG2, lambda, V domains shown, fully human IgG2 lambda, Campaign 2) VH: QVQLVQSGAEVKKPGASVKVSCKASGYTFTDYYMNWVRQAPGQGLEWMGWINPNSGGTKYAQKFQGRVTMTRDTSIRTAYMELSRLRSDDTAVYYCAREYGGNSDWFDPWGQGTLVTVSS VL: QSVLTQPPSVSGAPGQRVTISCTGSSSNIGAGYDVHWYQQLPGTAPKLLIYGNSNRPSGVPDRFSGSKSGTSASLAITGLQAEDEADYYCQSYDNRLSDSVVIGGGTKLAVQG : 40 to 100%
mAb 5B5.2 (antibody, human IgG2, lambda, V domains shown, fully human IgG2 lambda, Campaign 2; same chains as 5B5.1) VH: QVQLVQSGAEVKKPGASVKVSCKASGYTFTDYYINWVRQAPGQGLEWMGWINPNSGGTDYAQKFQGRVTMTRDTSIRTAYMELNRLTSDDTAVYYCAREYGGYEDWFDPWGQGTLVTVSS VL: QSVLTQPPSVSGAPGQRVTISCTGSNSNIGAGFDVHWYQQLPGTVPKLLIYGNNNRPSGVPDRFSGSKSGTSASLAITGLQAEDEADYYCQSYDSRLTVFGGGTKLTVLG : 40 to 100%

### Prompt # return recorded POC (percent of control, FACS Geo Mean relative to binding to Ch. 1) for input mAb 5B1.1 (antibody, human IgG2, lambda, V domains shown, fully human IgG2 lambda, Campaign 2; also called mAb 5Bl1.1) VH: QVQLVQSGAEVKKPGASVKVSCKASGYTFTDYYINWVRQAPGQGLEWMGWINPNSGGSSYAQKFQGRVTMTRDTSISTAHMELIRLRSDDTAVYYCARERGGIEDWFDPWGQGTLVTVSS VL: QSVLTQPPSVSGAPGQRVTISCTGSSSNIGAGYDVHWYQQLPGTAPKLLIYGNSNRPSGVPDRFSGSKSGTSASLAITKFQAEDEAVYYCQSYGSGLSGVVFGGGTKLTVLG
### Response 40 to 100%

### Prompt # return recorded POC (percent of control, FACS Geo Mean relative to binding to Ch. 1) for input mAb 2D2.1 (antibody, human IgG2, lambda, V domains shown, fully human IgG2 lambda, Campaign 1; also called mAb 2D.1) VH: QVQLQQWGAGLLKPSETLSLTCAVYGGSFSGYYWSWIRQPPGKGLEWIGEIDHSGRINYNPALKSRLTISVDTSKNQFSLKLSSVTAADTAVYYCARAGSGGYEDWFDPWGQGTLVTVSS VL: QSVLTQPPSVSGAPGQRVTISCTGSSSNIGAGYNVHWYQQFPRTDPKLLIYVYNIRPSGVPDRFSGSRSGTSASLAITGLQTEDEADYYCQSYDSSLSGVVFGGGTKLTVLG
### Response 40 to 100%

### Prompt # return recorded POC (percent of control, FACS Geo Mean relative to binding to Ch. 1) for input mAb 5A4.2 (antibody, human IgG2, lambda, V domains shown, fully human IgG2 lambda, Campaign 2) VH: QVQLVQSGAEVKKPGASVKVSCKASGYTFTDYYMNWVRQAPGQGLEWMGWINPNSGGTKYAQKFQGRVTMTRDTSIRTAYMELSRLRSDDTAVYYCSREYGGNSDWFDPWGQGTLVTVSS VL: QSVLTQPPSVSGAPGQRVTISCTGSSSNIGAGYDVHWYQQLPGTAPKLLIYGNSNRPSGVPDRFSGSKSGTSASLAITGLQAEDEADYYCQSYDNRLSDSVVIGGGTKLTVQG
### Response 40 to 100%
